assay method text: self-splicing fitness, log relative to wild type (ln ratio); higher = more splicing; Tetrahymena group I intron in knt gene, E. coli kanamycin selection, DiMSum; sequences stand for … in CUCUCU…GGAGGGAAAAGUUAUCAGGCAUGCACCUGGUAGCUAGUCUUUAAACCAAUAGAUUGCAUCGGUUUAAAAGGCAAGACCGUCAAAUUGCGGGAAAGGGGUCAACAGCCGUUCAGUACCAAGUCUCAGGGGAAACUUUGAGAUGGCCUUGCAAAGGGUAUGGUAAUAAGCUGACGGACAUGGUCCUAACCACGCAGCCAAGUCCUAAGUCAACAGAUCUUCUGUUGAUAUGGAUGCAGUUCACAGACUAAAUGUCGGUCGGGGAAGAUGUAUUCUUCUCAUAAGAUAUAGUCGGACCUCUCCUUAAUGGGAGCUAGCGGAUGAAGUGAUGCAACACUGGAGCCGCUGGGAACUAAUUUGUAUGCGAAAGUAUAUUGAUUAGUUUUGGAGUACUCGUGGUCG;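 further: selection with 25 µg/mL kanamycin versus none on LB agar overnight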
condition summary: 30 °C
What self-splicing fitness (ln) was measured for each of the following?
Keep it simple and answer with nothing but the number.

Req: Fill in the blank: the reported self-splicing fitness (ln) of "UAUCAGCAAUAUUACGUCUC" is ____.
Resp: -2.46

Req: Fill in the blank: the reported self-splicing fitness (ln) of "CACUAGCAAUAUUACGGUGC" is ____.
Resp: -2.24

Req: Fill in the blank: the reported self-splicing fitness (ln) of "AUUAAGCAAUAUUACGUUCG" is ____.
Resp: -0.91

Req: Fill in the blank: the reported self-splicing fitness (ln) of "UCAAAGCAAUAUUACGCUAA" is ____.
Resp: -3.48

Req: Fill in the blank: the reported self-splicing fitness (ln) of "UCUCAGCAAUAUUACGGGAU" is ____.
Resp: -4.25

Req: Fill in the blank: the reported self-splicing fitness (ln) of "ACGAAGCAAUAUUACGCUGC" is ____.
Resp: -3.95

Req: Fill in the blank: the reported self-splicing fitness (ln) of "GUAGAGCAAUAUUACGAUUU" is ____.
Resp: -1.13

Req: Fill in the blank: the reported self-splicing fitness (ln) of "ACUCAGCAAUAUUACGAUCC" is ____.
Resp: -3.06

Req: Fill in the blank: the reported self-splicing fitness (ln) of "UAAGAGCAAUAUUACGUCUA" is ____.
Resp: -0.273

Req: Fill in the blank: the reported self-splicing fitness (ln) of "CUCAAGCAAUAUUACGCUUG" is ____.
Resp: -3.58

Req: Fill in the blank: the reported self-splicing fitness (ln) of "CGACAGCAAUAUUACGAAGC" is ____.
Resp: -2.91

Req: Fill in the blank: the reported self-splicing fitness (ln) of "AGUCAGCAAUAUUACGUUGU" is ____.
Resp: -3.18

Req: Fill in the blank: the reported self-splicing fitness (ln) of "UGGCAGCAAUAUUACGCGCG" is ____.
Resp: -0.287

Req: Fill in the blank: the reported self-splicing fitness (ln) of "AAGGAGCAAUAUUACGGAGU" is ____.
Resp: -3.24

Req: Fill in the blank: the reported self-splicing fitness (ln) of "ACGAAGCAAUAUUACGCGGG" is ____.
Resp: -1.62

Req: Fill in the blank: the reported self-splicing fitness (ln) of "UUUGAGCAAUAUUACGAAAA" is ____.
Resp: -2.31
